assay: Solubility of the deprotonated form of emetine in water; type: physicochemical

Compound: CC[C@H]1CN2CCc3cc(OC)c(OC)cc3[C@@H]2C[C@@H]1C[C@H]1NCCc2cc(OC)c(OC)cc21 [emetine]
solubility [µg/mL]: 1790

Cited source for all entries: patent US20240382425A1
